- measurementTarget: BRD4 (BDII_E352-M457) (Homo sapiens, UniProt O60885)
- Construct: proliferation; Protocol
- measurementNotes: TR-FRET bromodomain binding assay, second bromodomain of BRD4
- setupConditions: His-tagged BD2, 30 nM Alexa647 probe; TR-FRET protocol A-E given per row
pKi: −log10 of the molar value.
measuredAttribute: pKi

Sample answers from the record:
compound	pKi
Cn1cc(-c2cc(N)ccc2Oc2ccc(F)cc2F)c2cc[nH]c(=O)c21	7.05
CCS(=O)(=O)Nc1ccc(Oc2ccc(F)cc2F)c(-c2cn(C)c3c(=O)[nH]c(C(=O)NCc4cccnc4)cc23)c1	8.89
CCS(=O)(=O)Nc1ccc(Oc2ccc(F)cc2F)c(-c2cn(C)c3c(=O)[nH]c(C4CCNCC4)cc23)c1	7.87
Cn1cc(-c2cc(S(C)(=O)=O)ccc2NCC2CCCC2)c2cc[nH]c(=O)c21	6.91
Cn1cc(-c2cc(S(C)(=O)=O)ccc2Oc2ccc(F)c(F)c2)c2cc[nH]c(=O)c21	7.10

[A] Cn1cc(-c2cc(NCc3cccc(C#N)c3)ccc2Oc2ccc(F)cc2F)c2cc[nH]c(=O)c21
[B] CCS(=O)(=O)Nc1ccc(OC2CCC(F)(F)CC2)c(-c2cn(C)c3c(=O)[nH]ccc23)c1
// query Which shows the larger pKi value: A or B ? Selection: enter the item's label.
// result B

----------
- System: breast cancer cell line MX-1
- measurementNotes: MX-1 cell line proliferation assay
- Assay type: cell-based
- setupConditions: MX-1 cells, 3-day proliferation assay, Cell Titer Glo; read-out: Cellular proliferation EC50
measuredAttribute: EC50 (µM)
// return numeric value only (unit: µM, not printed)

// query # query: EC50 | item CCS(=O)(=O)C(C)c1ccc(Oc2ccc(F)cc2F)c(-c2cn(C)c3c(=O)[nH]ccc23)c1 (single isomer, unassigned) [Example 57] | system: breast cancer cell line MX-1
// result 0.066

----------
- System: breast cancer cell line MX-1
- measurementNotes: MX-1 cell line proliferation assay
- Type: cell-based
- setupConditions: Homo sapiens, MX1, 72 h, MX-1 cells, 3-day proliferation assay, Cell Titer Glo; read-out: Cellular proliferation EC50
measuredAttribute: EC50 (nM)

molecule	EC50 [nM]
Cn1cc(-c2cc(S(C)(=O)=O)ccc2O[C@H]2CC[C@H](O)CC2)c2cc[nH]c(=O)c21 [Example 34]	95
Cn1cc(-c2cc(S(C)(=O)=O)ccc2OCCC2CC2)c2cc[nH]c(=O)c21 [Example 32]	127
Cn1cc(-c2cc(NC(=O)Cc3cccc(Oc4ccccc4)c3)ccc2Oc2ccc(F)cc2F)c2cc[nH]c(=O)c21 [Example 154]	1590
CC(C)S(=O)(=O)Nc1ccc(Oc2ccc(F)cc2F)c(-c2cn(C)c3c(=O)[nH]ccc23)c1 [Example 3]	161

[I] Cc1noc(C)c1S(=O)(=O)NCc1ccc(Oc2ccc(F)cc2F)c(-c2cn(C)c3c(=O)[nH]ccc23)c1 [Example 140]
[II] CCS(=O)(=O)Nc1ccc(Oc2ccc(Cl)cc2)c(-c2cn(C)c3c(=O)[nH]ccc23)c1 [Example 5]
[III] CCS(=O)(=O)Nc1ccc(Oc2ccc(F)cc2F)c(-c2cn(C)c3c(=O)[nH]c(C4CCNCC4)cc23)c1 [Example 183]
// query Exam item: list the entries in increasing order of EC50. Ranked list of labels, please, in the requested order.
// result II, III, I
